experiment: Stability in mouse liver microsomes assessed as parent compound remaining at 10 uM in presence of NADPH incubated for 60 mins at 37 degC by UPLC/MS analysis; assay type: ADME, Microsome; details: 1 h
Consider the following molecules and their measured Stability readings.
Reply with just the number (in %).

O=C(c1c2c(nn1-c1ccccc1)CCC(NCc1ccc(F)cc1)C2)N1CCCCC1 (stereo unspecified)    7

Now turn to the next molecule.
Please report the recorded Stability for O=C(c1c2c(nn1-c1ccc(F)cc1)CCC(NCc1ccc(F)cc1)C2)N1CCCCC1 (stereo unspecified) .
25

###

biological target: Sigma intracellular receptor 2 (Homo sapiens); assay: Displacement of [3H]-DTG from sigma2 receptor (unknown origin) after 120 mins in presence of sigma1 […] (+)-SKF10047 by microbeta scintillation counting method; details: read-out: Ki
Sequence (Q5BJF2 whole entry): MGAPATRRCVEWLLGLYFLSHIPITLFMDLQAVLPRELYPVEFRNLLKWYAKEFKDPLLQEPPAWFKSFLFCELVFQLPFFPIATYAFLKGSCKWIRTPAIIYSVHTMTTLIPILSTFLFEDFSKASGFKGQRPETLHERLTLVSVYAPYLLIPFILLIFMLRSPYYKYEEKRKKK
pKi: −log10 of the molar value.
measured endpoint: pKi

I am curious: what pKi value has been reported for O=C(c1c2c(nn1-c1ccc(F)cc1)CCC(NCc1ccc(F)cc1)C2)N1CCCCC1 (stereo unspecified) ?
< 5.00

###

test: Thermodynamic solubility in pH 7.4 PBS buffer incubated for 16 hrs by UV-absorption spectroscopy; assay type: physicochemical; details: pH 7.4, 16 h
Listing: Therm solubility of selected compounds
Answer format: number, then unit.

Value lookup for Therm solubility; key = O=C(c1c2c(nn1-c1ccccc1)CCC(NCc1ccc(F)cc1)C2)N1CCCCC1 (stereo not given)
508 µM

Sample O=C(c1c2c(nn1-c1ccccc1)CCC(NCCc1ccc3c(c1)OCO3)C2)N1CCCCC1 (stereo not given) — what was its Therm solubility?
655 µM

Record request: Therm solubility value, item CCCn1nc(C(=O)N(C)C)c2c1CCC(NCc1ccc(F)cc1)C2 (stereo not given)
1780 µM

# Therm solubility lookup, item O=C(c1nn(-c2ccccc2)c2c1CC(NCc1ccccc1)CC2)N1CCCCC1 (stereo not given)
1570 µM

Entry O=C(c1c2c(nn1-c1ccc(F)cc1)CCC(NCc1ccc(F)cc1)C2)N1CCCCC1 (stereo not given) has what Therm solubility?
110 µM

###

target: Sigma non-opioid intracellular receptor 1 (Homo sapiens, UniProt Q99720); assay: Displacement of [3H]-(+)-pentazocine from recombinant human sigma1 receptor expressed in HEK293 cell membranes after 120 mins by microbeta scintillation counting method
Sequence (Q99720 whole entry): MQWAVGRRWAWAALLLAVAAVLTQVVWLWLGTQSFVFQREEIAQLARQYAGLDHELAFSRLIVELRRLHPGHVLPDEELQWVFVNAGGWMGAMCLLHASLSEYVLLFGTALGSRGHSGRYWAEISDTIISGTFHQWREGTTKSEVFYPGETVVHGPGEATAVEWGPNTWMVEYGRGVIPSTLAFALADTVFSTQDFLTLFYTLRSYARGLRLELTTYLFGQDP
measured endpoint: pKi
Formally, pKi is defined as -log10 of the concentration c, with c in mol/L.

c1ccc(OCc2cc(OC[C@@H]3CCCN3)no2)cc1    8.39

Kindly review the next compound as well.
Name the recorded pKi for `Cc1nc(-c2ccc(Cl)cc2)nc(OCCCN2CCCCC2)c1Cl` .
8.96

###

target: Sigma non-opioid intracellular receptor 1 (Homo sapiens, UniProt Q99720); assay: Displacement of [3H]-(+)-pentazocine from sigma1 receptor (unknown origin) expressed in HEK293 cell membranes after 120 mins by microbeta scintillation counting method
measured endpoint: Ki (nM)
Only the number, expressed in nM, is required.

Here are 5 compounds together with their reported answers.
O=C(c1nn(-c2ccccc2)c2c1CC(NCCc1ccc(F)cc1)CC2)N1CCCCC1 (stereo unspecified)    126
NC(=O)c1ccc(-n2nc3c(c2C(=O)N2CCCCC2)CC(NCCc2ccccc2)CC3)cc1 (stereo unspecified)    631
CCCn1nc(C(=O)N(C)C)c2c1CCC(NCCc1ccc(C(F)(F)F)cc1)C2 (stereo unspecified)    2510
O=C(c1nn(-c2ccccc2)c2c1CC(NCCc1cccc(O)c1)CC2)N1CCCCC1 (stereo unspecified)    200
O=C(c1c2c(nn1-c1ccc(O)cc1)CCC(NCCc1ccccc1)C2)N1CCCCC1 (stereo unspecified)    316

As a next step, examine the compound that follows.
Consider the compound O=C(c1nn(Cc2ccccc2)c2c1CC(NCc1ccc(F)cc1)CC2)N1CCCCC1 (stereo unspecified) and give its measured Ki.
251
